Measured inhibition values are reported for all entries that follow.
target: Coagulation factor X (Homo sapiens) (UniProt P00742); assay: Inhibition of human factor 10a using Pefachrome-tPA substrate; conditions: concentration not given here
Sequence (P00742 41-179 limits assumed): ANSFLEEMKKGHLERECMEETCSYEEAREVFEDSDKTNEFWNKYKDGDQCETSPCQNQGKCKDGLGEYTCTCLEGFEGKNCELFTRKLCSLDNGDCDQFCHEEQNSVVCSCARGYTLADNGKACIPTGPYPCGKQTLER
Sequence (P00742 235-488 limits assumed): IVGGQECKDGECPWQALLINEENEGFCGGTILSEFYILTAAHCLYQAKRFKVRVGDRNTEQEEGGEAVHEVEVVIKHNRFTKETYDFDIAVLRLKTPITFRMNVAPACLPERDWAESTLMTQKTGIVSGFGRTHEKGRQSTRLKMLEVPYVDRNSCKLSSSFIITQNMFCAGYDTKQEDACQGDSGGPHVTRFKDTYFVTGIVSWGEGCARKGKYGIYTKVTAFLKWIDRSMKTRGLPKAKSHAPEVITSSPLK
Kindly format the answer as number then unit.

O=C[C@H](C[C@@H]1CCNC1=O)NC(=O)[C@H](CC1CCCCC1)NC(=O)OCc1cccc(Cl)c1; 1%
CCOP(=O)(OCC)C(O)[C@H](C[C@@H]1CCNC1=O)NC(=O)[C@H](CC1CCCCC1)NC(=O)OCc1cccc(Br)c1 (some centres undefined); 6%
CCOP(=O)(OCC)C(O)[C@H](C[C@@H]1CCNC1=O)NC(=O)[C@H](CC1CCCCC1)NC(=O)OCc1cccc(Cl)c1 (some centres undefined); 0%

Continue with the next molecule.
stdin: Name the reported inhibition value associated with the molecule "O=C[C@H](C[C@@H]1CCNC1=O)NC(=O)[C@H](CC1CCCCC1)NC(=O)OCc1cccc(Br)c1"
stdout: 0%

----------
species on record: Homo sapiens; test: Inhibition of chymotrypsin (unknown origin); settings: concentration not given here
PARAMETER: inhibition (%)
Give the quantity in %, number only.

Illustrative cases are given below, each with its answer.
O=C[C@H](C[C@@H]1CCNC1=O)NC(=O)[C@H](CC1CCCCC1)NC(=O)OCc1cccc(Br)c1; 0
O=C[C@H](C[C@@H]1CCNC1=O)NC(=O)[C@H](CC1CCCCC1)NC(=O)OCc1cccc(Cl)c1; 0
CCOP(=O)(OCC)C(O)[C@H](C[C@@H]1CCNC1=O)NC(=O)[C@H](CC1CCCCC1)NC(=O)OCc1cccc(Br)c1 (some centres undefined); 0

Continue with the next compound.
stdin: Name the reported inhibition value associated with the compound CCOP(=O)(OCC)C(O)[C@H](C[C@@H]1CCNC1=O)NC(=O)[C@H](CC1CCCCC1)NC(=O)OCc1cccc(Cl)c1 (some centres undefined)
stdout: 2.4

----------
Measured inhibition values are reported for all entries that follow.
target: Neutrophil elastase (Homo sapiens); test: Inhibition of human neutrophil elastase; details: concentration not given here
Give the quantity in %, number only.

Illustrative cases are given below, each with its answer.
O=C[C@H](C[C@@H]1CCNC1=O)NC(=O)[C@H](CC1CCCCC1)NC(=O)OCc1cccc(Cl)c1; 15
O=C[C@H](C[C@@H]1CCNC1=O)NC(=O)[C@H](CC1CCCCC1)NC(=O)OCc1cccc(Br)c1; 26.5
CCOP(=O)(OCC)C(O)[C@H](C[C@@H]1CCNC1=O)NC(=O)[C@H](CC1CCCCC1)NC(=O)OCc1cccc(Br)c1 (some centres undefined); 63

Continue with the next compound.
stdin: Name the reported inhibition value associated with the compound CCOP(=O)(OCC)C(O)[C@H](C[C@@H]1CCNC1=O)NC(=O)[C@H](CC1CCCCC1)NC(=O)OCc1cccc(Cl)c1 (some centres undefined)
stdout: 86.5

----------
biological target: Plasminogen (Homo sapiens); experiment: Inhibition of plasmin (unknown origin); conditions: concentration not given here
Measured inhibition values are reported for all entries that follow.
Give the quantity in %, number only.

stdin: Name the reported inhibition value associated with the molecule CCOP(=O)(OCC)C(O)[C@H](C[C@@H]1CCNC1=O)NC(=O)[C@H](CC1CCCCC1)NC(=O)OCc1cccc(Cl)c1 (some centres undefined)
stdout: 15

stdin: What about this molecule? "O=C[C@H](C[C@@H]1CCNC1=O)NC(=O)[C@H](CC1CCCCC1)NC(=O)OCc1cccc(Cl)c1"
stdout: 0

stdin: What about this molecule? "O=C[C@H](C[C@@H]1CCNC1=O)NC(=O)[C@H](CC1CCCCC1)NC(=O)OCc1cccc(Br)c1"
stdout: 7

stdin: What about this molecule? CCOP(=O)(OCC)C(O)[C@H](C[C@@H]1CCNC1=O)NC(=O)[C@H](CC1CCCCC1)NC(=O)OCc1cccc(Br)c1 (some centres undefined)
stdout: 13
